Each record here notes measured Km.
# Substrate: CC(=O)Oc1ccc2ccccc2c1
# Assay summary: esterase activity assay
# Type: biochemical, Geobacillus stearothermophilus
# Run parameters: 2-naphthyl acetate 1-20 mM in isopropanol, citrate phosphate buffer pH 7
Numbers only; they are read as µM.

Look over these answered cases.
>>> val("Axe2 (Geobacillus stearothermophilus; W190I) (protein) MKIGSGEKLLFIGDSITDCGRARPEGEGSFGALGTGYVAYVVGLLQAVYPELGIRVVNKGISGNTVRDLKARWEEDVIAQKPDWVSIMIGINDVWRQYDLPFMKEKHVYLDEYEATLRSLVLETKPLVKGIILMTPFYIEGNEQDPMRRTMDQYGRVVKQIAEETNSLFVDTQAAFNEVLKTLYPAALAIDRVHPSVAGHMILARAFLREIGFEWVRSR")
700
>>> val("Axe2 (Geobacillus stearothermophilus; W190P/Y184F) (protein) MKIGSGEKLLFIGDSITDCGRARPEGEGSFGALGTGYVAYVVGLLQAVYPELGIRVVNKGISGNTVRDLKARWEEDVIAQKPDWVSIMIGINDVWRQYDLPFMKEKHVYLDEYEATLRSLVLETKPLVKGIILMTPFYIEGNEQDPMRRTMDQYGRVVKQIAEETNSLFVDTQAAFNEVLKTLFPAALAPDRVHPSVAGHMILARAFLREIGFEWVRSR")
3000
>>> val("Axe2 (Geobacillus stearothermophilus; R55A) (protein) MKIGSGEKLLFIGDSITDCGRARPEGEGSFGALGTGYVAYVVGLLQAVYPELGIAVVNKGISGNTVRDLKARWEEDVIAQKPDWVSIMIGINDVWRQYDLPFMKEKHVYLDEYEATLRSLVLETKPLVKGIILMTPFYIEGNEQDPMRRTMDQYGRVVKQIAEETNSLFVDTQAAFNEVLKTLYPAALAWDRVHPSVAGHMILARAFLREIGFEWVRSR")
600

*Q* What value of Km has been reported for the following protein? Axe2 (Geobacillus stearothermophilus; Y184N) (protein) MKIGSGEKLLFIGDSITDCGRARPEGEGSFGALGTGYVAYVVGLLQAVYPELGIRVVNKGISGNTVRDLKARWEEDVIAQKPDWVSIMIGINDVWRQYDLPFMKEKHVYLDEYEATLRSLVLETKPLVKGIILMTPFYIEGNEQDPMRRTMDQYGRVVKQIAEETNSLFVDTQAAFNEVLKTLNPAALAWDRVHPSVAGHMILARAFLREIGFEWVRSR
*A* 1300

*Q* Same for Axe2 (Geobacillus stearothermophilus) (protein) MKIGSGEKLLFIGDSITDCGRARPEGEGSFGALGTGYVAYVVGLLQAVYPELGIRVVNKGISGNTVRDLKARWEEDVIAQKPDWVSIMIGINDVWRQYDLPFMKEKHVYLDEYEATLRSLVLETKPLVKGIILMTPFYIEGNEQDPMRRTMDQYGRVVKQIAEETNSLFVDTQAAFNEVLKTLYPAALAWDRVHPSVAGHMILARAFLREIGFEWVRSR
*A* 300

*Q* For Axe2 (Geobacillus stearothermophilus; R55E) (protein) MKIGSGEKLLFIGDSITDCGRARPEGEGSFGALGTGYVAYVVGLLQAVYPELGIEVVNKGISGNTVRDLKARWEEDVIAQKPDWVSIMIGINDVWRQYDLPFMKEKHVYLDEYEATLRSLVLETKPLVKGIILMTPFYIEGNEQDPMRRTMDQYGRVVKQIAEETNSLFVDTQAAFNEVLKTLYPAALAWDRVHPSVAGHMILARAFLREIGFEWVRSR then?
*A* 500

*Q* Do the same for Axe2 (Geobacillus stearothermophilus; R205A/W215A/Y184F) (protein) MKIGSGEKLLFIGDSITDCGRARPEGEGSFGALGTGYVAYVVGLLQAVYPELGIRVVNKGISGNTVRDLKARWEEDVIAQKPDWVSIMIGINDVWRQYDLPFMKEKHVYLDEYEATLRSLVLETKPLVKGIILMTPFYIEGNEQDPMRRTMDQYGRVVKQIAEETNSLFVDTQAAFNEVLKTLFPAALAWDRVHPSVAGHMILAAAFLREIGFEAVRSR please
*A* 6700

*Q* Consider next the protein Axe2 (Geobacillus stearothermophilus; Y184F) (protein) MKIGSGEKLLFIGDSITDCGRARPEGEGSFGALGTGYVAYVVGLLQAVYPELGIRVVNKGISGNTVRDLKARWEEDVIAQKPDWVSIMIGINDVWRQYDLPFMKEKHVYLDEYEATLRSLVLETKPLVKGIILMTPFYIEGNEQDPMRRTMDQYGRVVKQIAEETNSLFVDTQAAFNEVLKTLFPAALAWDRVHPSVAGHMILARAFLREIGFEWVRSR in the same way.
*A* 4600
